system: RAW264.7; test: Cytotoxicity against mouse RAW264.7 cells after 72 hrs by MTT assay; type: cell-based; conditions: RAW264.7, 72 h
Give pIC50 for every item shown.
Scale explanation: pIC50 corresponds to minus log10 of a concentration expressed in moles per litre.

Could you share which pIC50 value was measured for `O=C(O)c1cn(C2CC2)c2cc(N3CCN(C(=O)CN4CCN(c5ccccc5Cl)CC4)CC3)c(F)cc2c1=O` ?
3.78

Another compound to check: `O=C(O)c1cn(C2CC2)c2cc(N3CCN(C(=O)CN4CCN(c5ncccn5)CC4)CC3)c(F)cc2c1=O`
3.64

Another compound to check: `O=C(O)c1cn(C2CC2)c2cc(N3CCN(C(=O)CN4CCN(Cc5ccccc5)CC4)CC3)c(F)cc2c1=O`
3.79

Another compound to check: `CCN1CCN(CC(=O)N2CCN(c3cc4c(cc3F)c(=O)c(C(=O)O)cn4C3CC3)CC2)CC1`
3.73

Another compound to check: `O=C(O)c1cn(C2CC2)c2cc(N3CCN(C(=O)CN4CCN(C(c5ccccc5)c5ccccc5)CC4)CC3)c(F)cc2c1=O`
4.02

Another compound to check: `CC(=O)N1CCN(CC(=O)N2CCN(c3cc4c(cc3F)c(=O)c(C(=O)O)cn4C3CC3)CC2)CC1`
3.81

Another compound to check: `Cc1cccc(N2CCN(CC(=O)N3CCN(c4cc5c(cc4F)c(=O)c(C(=O)O)cn5C4CC4)CC3)CC2)c1`
3.81

Another compound to check: CC(c1ccccc1)N1CCN(CC(=O)N2CCN(c3cc4c(cc3F)c(=O)c(C(=O)O)cn4C3CC3)CC2)CC1 (stereo not drawn)
3.83

* * *

test system: Escherichia coli; test: Antimicrobial activity against Escherichia coli ATCC 25922 after 24 hrs by broth microdilution method; assay type: functional; details: ATCC 25922, 24 h
measured_property: MIC99 (µM)
# value in µM; strip the unit string

Could you share which MIC99 value was measured for `O=C(O)c1cn(C2CC2)c2cc(N3CCN(C(=O)CN4CCN(c5cccc(C(F)(F)F)c5)CC4)CC3)c(F)cc2c1=O` ?
6.66

Another molecule to check: `O=C(O)c1cn(C2CC2)c2cc(N3CCN(C(=O)CN4CCN(c5cccc(O)c5)CC4)CC3)c(F)cc2c1=O`
3.64

Another molecule to check: `COc1cccc(N2CCN(CC(=O)N3CCN(c4cc5c(cc4F)c(=O)c(C(=O)O)cn5C4CC4)CC3)CC2)c1`
3.55

Another molecule to check: O=C(O)c1cn(C2CC2)c2cc(N3CCNCC3)c(F)cc2c1=O [CIPROFLOXACIN]
0.021

Another molecule to check: `O=C(O)c1cn(C2CC2)c2cc(N3CCN(C(=O)CN4CCN(Cc5ccccc5)CC4)CC3)c(F)cc2c1=O`
1.83

Another molecule to check: CC(c1ccccc1)N1CCN(CC(=O)N2CCN(c3cc4c(cc3F)c(=O)c(C(=O)O)cn4C3CC3)CC2)CC1 (stereo not given)
3.56

Another molecule to check: `O=C(O)c1cn(C2CC2)c2cc(N3CCN(C(=O)CN4CCN(c5ccccc5)CC4)CC3)c(F)cc2c1=O`
1.87

Another molecule to check: `COc1ccc(N2CCN(CC(=O)N3CCN(c4cc5c(cc4F)c(=O)c(C(=O)O)cn5C4CC4)CC3)CC2)cc1OC`
6.75

Another molecule to check: `O=C(O)c1cn(C2CC2)c2cc(N3CCN(C(=O)CN4CCN(c5ccccc5Cl)CC4)CC3)c(F)cc2c1=O`
0.88

Another molecule to check: `O=C(O)c1cn(C2CC2)c2cc(N3CCN(C(=O)CN4CCN(c5ccccn5)CC4)CC3)c(F)cc2c1=O`
3.75

Another molecule to check: `N#Cc1ccccc1N1CCN(CC(=O)N2CCN(c3cc4c(cc3F)c(=O)c(C(=O)O)cn4C3CC3)CC2)CC1`
3.58

Another molecule to check: `N#Cc1ccc(N2CCN(CC(=O)N3CCN(c4cc5c(cc4F)c(=O)c(C(=O)O)cn5C4CC4)CC3)CC2)cc1`
7.17

Another molecule to check: `Cc1cccc(N2CCN(CC(=O)N3CCN(c4cc5c(cc4F)c(=O)c(C(=O)O)cn5C4CC4)CC3)CC2)c1`
7.32

* * *

tested on: Staphylococcus aureus; experiment: Antimicrobial activity against Staphylococcus aureus ATCC 29213 after 24 hrs by broth microdilution method; type: functional; conditions: ATCC 29213, 24 h
Entries whose MIC99 is below 2 µM take Met; entries at or above 2 µM take Not met.

Check if MIC99 falls below 2 µM for `CN1CCN(CC(=O)N2CCN(c3cc4c(cc3F)c(=O)c(C(=O)O)cn4C3CC3)CC2)CC1` .
Not met

Another molecule to check: `O=C(O)c1cn(C2CC2)c2cc(N3CCN(C(=O)CN4CCN(c5ccccc5)CC4)CC3)c(F)cc2c1=O`
Met

Another molecule to check: `CCN1CCN(CC(=O)N2CCN(c3cc4c(cc3F)c(=O)c(C(=O)O)cn4C3CC3)CC2)CC1`
Not met

Another molecule to check: `COc1ccc(N2CCN(CC(=O)N3CCN(c4cc5c(cc4F)c(=O)c(C(=O)O)cn5C4CC4)CC3)CC2)cc1OC`
Met

Another molecule to check: `O=C(O)c1cn(C2CC2)c2cc(N3CCN(C(=O)CN4CCN(c5ncccn5)CC4)CC3)c(F)cc2c1=O`
Met

Another molecule to check: `COc1cccc(N2CCN(CC(=O)N3CCN(c4cc5c(cc4F)c(=O)c(C(=O)O)cn5C4CC4)CC3)CC2)c1`
Met

Another molecule to check: `Cc1cccc(N2CCN(CC(=O)N3CCN(c4cc5c(cc4F)c(=O)c(C(=O)O)cn5C4CC4)CC3)CC2)c1`
Met

Another molecule to check: `O=C(O)c1cn(C2CC2)c2cc(N3CCN(C(=O)CN4CCN(C(c5ccccc5)c5ccccc5)CC4)CC3)c(F)cc2c1=O`
Met

Another molecule to check: `O=C(O)c1cn(C2CC2)c2cc(N3CCN(C(=O)CN4CCN(c5cccc(C(F)(F)F)c5)CC4)CC3)c(F)cc2c1=O`
Met

Another molecule to check: `N#Cc1ccccc1N1CCN(CC(=O)N2CCN(c3cc4c(cc3F)c(=O)c(C(=O)O)cn4C3CC3)CC2)CC1`
Met

Another molecule to check: `O=C(O)c1cn(C2CC2)c2cc(N3CCN(C(=O)CN4CCN(c5ccccn5)CC4)CC3)c(F)cc2c1=O`
Met

Another molecule to check: `O=C(O)c1cn(C2CC2)c2cc(N3CCN(C(=O)CN4CCN(C(c5ccc(F)cc5)c5ccc(F)cc5)CC4)CC3)c(F)cc2c1=O`
Met

Another molecule to check: `O=C(O)c1cn(C2CC2)c2cc(N3CCN(C(=O)CN4CCN(c5ccc(Cl)cc5)CC4)CC3)c(F)cc2c1=O`
Met

Another molecule to check: `O=C(O)c1cn(C2CC2)c2cc(N3CCN(C(=O)CN4CCN(c5ccc([N+](=O)[O-])cc5)CC4)CC3)c(F)cc2c1=O`
Not met

Another molecule to check: `O=C(O)c1cn(C2CC2)c2cc(N3CCNCC3)c(F)cc2c1=O`
Met

Another molecule to check: `O=C(O)c1cn(C2CC2)c2cc(N3CCN(C(=O)CN4CCN(c5cccc(O)c5)CC4)CC3)c(F)cc2c1=O`
Met
